# Assay Summary: Acute toxicity in the mouse
# Design: species or system souris
# Condition Description: in vivo, IV route, read-out: D.L. 5a
Observable: LD50 (mg/kg)
Numeric answer only, unit mg/kg assumed.

| Smiles Input | Test Result |
| --- | --- |
| CSCC[C@H](NC(=O)[C@H](Cc1ccccc1)NC(=O)CNC(=O)[C@@H](C)NC(=O)[C@@H](N)Cc1ccc(O)cc1)C(=O)NCCNS(=O)(=O)c1cccc2c(N(C)C)cccc12 | 725 |

// next item, LD50 requested
Enquiry: Would you kindly share the measured LD50 for CSCC[C@H](NC(=O)[C@H](Cc1ccccc1)NC(=O)CNC(=O)[C@@H](C)NC(=O)[C@@H](N)Cc1ccc(O)cc1)C(=O)NCCCCCNS(=O)(=O)c1cccc2c(N(C)C)cccc12 ?
Return: 892

====

# Experimental System: sites de liaison à haute et moyenne affinité de la leucine-enképhaline 3-R de membranes striatales de souris
# Assay Summary: Competition with tritiated Leu-enkephalin binding on mouse striatal membranes
# Condition Description: displacement of a fixed concentration of Leucine-Enképhaline 3-H
Observable: pKi
Please report pKi as the negative decimal logarithm of the molar concentration, giving only the number.

Answered examples (2):
| Compound | Test Result |
| --- | --- |
| CSCC[C@H](NC(=O)[C@H](Cc1ccccc1)NC(=O)CNC(=O)[C@@H](C)NC(=O)[C@@H](N)Cc1ccc(O)cc1)C(=O)NCCNS(=O)(=O)c1cccc2c(N(C)C)cccc12 | 8.30 |
| CSCC[C@H](NC(=O)[C@H](Cc1ccccc1)NC(=O)CNC(=O)[C@@H](C)NC(=O)[C@@H](N)Cc1ccc(O)cc1)C(=O)NCCCCCNS(=O)(=O)c1cccc2c(N(C)C)cccc12 | 7.68 |

// next item, pKi requested
Enquiry: Would you kindly share the measured pKi for CC(C)C[C@H](NC(=O)[C@H](Cc1ccccc1)NC(=O)CNC(=O)CNC(=O)[C@@H](N)Cc1ccc(O)cc1)C(=O)O [Leu-enképhaline, reference compound] ?
Return: 8.30
